Test system: MDA-MB-435
procedure_text: NCI tumour cell line growth inhibition, 48 h
Active and inactive are the calls of the source. No stated cut-off is given here; in the data, active = GI50 up to about 1.1 µM and inactive = higher.
# GI50 annotations
assay_readout: GI50

>>> result("COC(=O)c1ccc(OCCn2nnc(C(=O)NN)c2C(=O)NN)cc1")
"> 100 µM (inactive)"
>>> result("FC1C2=C(SC1(F)F)C1CCC2C1 (stereo not given)")
"> 100 µM (inactive)"
>>> result("CCc1n[nH]c(=O)n1CC")
"> 100 µM (inactive)"
>>> result("CN(C)C(=O)Oc1ccc[n+](C)c1 [PYRIDOSTIGMINE BROMIDE]")
"> 100 µM (inactive)"
>>> result("O=Cc1ccc2c(c1)CC1(Cc3ccccc3C1)C2")
"16.7 µM (inactive)"
>>> result("CCCCCCCCCCCCCCCCCCOCC(CCP(=O)(CP(=O)(O)O)Oc1ccccc1)OCCCCCCCCCCCCCCCCCC (stereo not given)")
"> 100 µM (inactive)"
>>> result("NC(=O)c1cc2ccccc2c(/N=N/c2ccccc2)c1O")
"> 100 µM (inactive)"
>>> result("N#CC(C#N)=CNC(=S)Nc1ccc(S(=O)(=O)Nc2nccs2)cc1")
"> 100 µM (inactive)"
>>> result("CN(C)Cc1c(O)ccc2c1c1c(n2C)C(=O)c2ccccc2C1=O")
"4.35 µM (inactive)"
>>> result("C=C(CC[C@@H](C)[C@H]1CC[C@H]2[C@@H]3C[C@@H](O)[C@H]4C[C@@H](O)CC[C@]4(CO)[C@H]3CC[C@]12C)C(C)C")
"7.45 µM (inactive)"
>>> result("O=C1CC(c2ccccc2)NCCCCN2CC(CN1)C(C(O)c1ccccc1)C2=O (stereo not given)")
"> 100 µM (inactive)"
>>> result("O=C(O)c1cc(Cl)cc(Cc2cc(Cl)cc(C(=O)O)c2O)c1O")
"> 100 µM (inactive)"
>>> result("Cc1nc(C)c(N2CCN([N+](=O)[O-])CC2)c(O)n1")
"> 100 µM (inactive)"
>>> result("COc1cccc(-c2c(C#N)c(N)nc3c2CCS(=O)(=O)c2ccc(C)cc2-3)c1")
"> 100 µM (inactive)"
>>> result("CC1=CC[C@@]2(CO)[C@@H]([C@@H]1C)[C@H]1CC[C@@H]3[C@@]4(C)CC[C@H](O)C(C)(C)[C@@H]4CC[C@@]3(C)[C@]1(C)C[C@@H]2O")
"40.2 µM (inactive)"
>>> result("CN(C)c1ncc(-c2c[nH]c3ccccc23)nc1-c1c[nH]c2ccccc12")
"3.31 µM (inactive)"
>>> result("O=c1[nH]nc(Cc2ccc(Cl)cc2)n1/N=C/c1ccco1")
"> 100 µM (inactive)"
>>> result("Cc1ncc([N+](=O)[O-])n1CCNC(=O)Cn1c([N+](=O)[O-])cnc1C")
"> 100 µM (inactive)"
>>> result("CN(C)c1ccc2c(c1)oc(=O)c1ccccc12")
"9.31 µM (inactive)"
>>> result("c1ccc(CSc2nc(N3CCOCC3)c3cn[nH]c3n2)cc1")
"17.5 µM (inactive)"
>>> result("Cc1ccc2c3c1O[C@H]1c4[nH]c5ccccc5c4C[C@@]4(O)[C@@H](C2)N(CC2CC2)CC[C@]314")
"13.7 µM (inactive)"
>>> result("Cc1cc2c(c(C(=O)NCCC(=O)N[C@@H](C)C(=O)OCc3ccccc3)c1)Oc1c(cc(C)cc1C(=O)NCCC(=O)N[C@@H](C)C(=O)OCc1ccccc1)S2")
"> 100 µM (inactive)"
>>> result("O=c1c(Cc2ccc(Cl)cc2)nnc2sc(-c3ccc(-c4ccc(F)c(Cl)c4)o3)nn12")
"82 µM (inactive)"
>>> result("C#C/C=C\\CCCCCCCCCCCCCC/C=C\\CCCCC#CC(O)C#CCCCC/C=C\\CCCCCC/C=C/C(O)C#C (stereo not given)")
"4.58 µM (inactive)"
>>> result("CN1c2ccccc2C(=O)Nc2cnc(Cl)nc21")
"> 100 µM (inactive)"
>>> result("CCCCCCCCCCCCCCCCCCNC(=S)NC=C1C(=O)c2ccccc2C1=O")
"15.9 µM (inactive)"
>>> result("CC(C)OC(=O)c1ccc(NCc2cc(O)ccc2O)cc1")
"2.06 µM (inactive)"
>>> result("CN(C)c1ccc(C2SCC(=O)N2c2ccc(Oc3ccc(Cl)cc3)c(Cl)c2)cc1 (stereo not given)")
"22.7 µM (inactive)"
>>> result("Cc1ccc(S(=O)(=O)NC(CN)C(=O)O)cc1 (stereo not given)")
"> 100 µM (inactive)"
>>> result("Cc1nc(N)sc1/N=N/c1ccccc1Br")
"24.3 µM (inactive)"
